Target: Casein kinase I isoform delta (Homo sapiens)
Sequence (P48730 whole entry, canonical isoform): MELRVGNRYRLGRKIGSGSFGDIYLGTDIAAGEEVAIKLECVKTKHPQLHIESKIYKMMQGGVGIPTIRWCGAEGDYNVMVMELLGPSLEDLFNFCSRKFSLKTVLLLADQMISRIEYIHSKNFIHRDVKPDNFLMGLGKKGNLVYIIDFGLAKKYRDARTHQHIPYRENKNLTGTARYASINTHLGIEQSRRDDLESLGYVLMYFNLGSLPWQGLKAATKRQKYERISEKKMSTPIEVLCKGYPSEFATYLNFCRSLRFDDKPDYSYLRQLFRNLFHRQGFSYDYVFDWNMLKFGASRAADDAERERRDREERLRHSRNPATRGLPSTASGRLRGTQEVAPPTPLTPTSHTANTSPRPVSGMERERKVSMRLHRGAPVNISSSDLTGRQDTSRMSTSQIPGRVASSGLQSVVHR
Test: Inhibition of CK1delta

>  <compound>
C[C@@H]1CCC(N2CC[C@]3(CN(C(=O)c4cc5ccc(F)cc5[nH]4)c4ccccc43)C2)CN1 (stereo partly drawn)

>  <IC50>
1.73 µM

$$$$
>  <compound>
O=C(c1cc2ccc(F)cc2[nH]1)N1C[C@]2(CCN(C3CCNC3)C2)c2ccccc21 (stereo partly drawn)

>  <IC50>
11 µM

$$$$
>  <compound>
C[C@@H]1CCC(N2CC[C@]3(CN(C(=O)c4cc5ccccc5[nH]4)c4ccccc43)C2)CN1 (stereo partly drawn)

>  <IC50>
6.61 µM

$$$$
